system: HeLa cervix carcinoma cells; assay: MTT antiproliferative assay, HeLa; assay type: cell-based; conditions: Homo sapiens, 72 h
Known pIC50 of a selection of molecules
Scale: pIC50 equals -log10([C]), with [C] in mol/L.

Guide cases for pIC50, answers given:
* COc1ccc2c(c1)OC(N)=C(C#N)C2c1ccc(F)c(F)c1 (stereo not shown) [2I] | 6.22
* COc1ccc2c(c1)OC(N)=C(C#N)C2c1cccc([N+](=O)[O-])c1 (stereo not shown) [2R] | 6.52
* COc1ccc2c(c1)OC(N)=C(C#N)C2c1cc(Br)c(OC)c(Br)c1 (stereo not shown) [2E] | 7.52

Could you now consider this next molecule?
Task: State the recorded pIC50 for this entry: COc1ccc2c(c1)OC(N)=C(C#N)C2c1cc(Br)c(OC)c(OC)c1 (stereo not shown) [2B]
Output: 8.70

---

molecular target: MYB (Homo sapiens, UniProt P10242, K503R/K527R); assay: Luciferase-dependent MYB activity assay (HEK-MYB-Luc reporter cells); conditions: HEK-293 reporter cells, 16 h; read-out: IC50 inhibition of MYB activity
Sequence (P10242 whole entry K503R/K527R): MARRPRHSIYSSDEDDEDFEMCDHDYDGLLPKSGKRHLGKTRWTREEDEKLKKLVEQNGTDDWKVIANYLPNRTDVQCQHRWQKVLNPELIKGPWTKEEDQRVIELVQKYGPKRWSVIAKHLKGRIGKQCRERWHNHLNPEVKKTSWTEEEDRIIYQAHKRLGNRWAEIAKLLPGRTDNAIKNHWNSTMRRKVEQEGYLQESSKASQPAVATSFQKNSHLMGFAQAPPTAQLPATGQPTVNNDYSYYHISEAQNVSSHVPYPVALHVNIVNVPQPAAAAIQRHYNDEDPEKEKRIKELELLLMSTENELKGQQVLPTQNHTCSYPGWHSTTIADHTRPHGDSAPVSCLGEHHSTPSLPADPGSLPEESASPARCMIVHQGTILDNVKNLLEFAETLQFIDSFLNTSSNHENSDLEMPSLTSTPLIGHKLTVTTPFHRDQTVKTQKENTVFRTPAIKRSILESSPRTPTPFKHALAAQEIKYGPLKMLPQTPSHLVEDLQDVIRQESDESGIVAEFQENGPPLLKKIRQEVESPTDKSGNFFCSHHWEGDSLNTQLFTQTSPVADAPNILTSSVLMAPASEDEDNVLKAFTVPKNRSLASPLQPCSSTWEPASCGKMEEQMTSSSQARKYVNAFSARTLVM
observation.type: IC50 (nM)
The reply should contain only the number, in nM.

Some entries whose results are on file:
• COc1cc(C2C(C#N)=C(N)Oc3c2ccc2ccccc32)cc(OC)c1OC (centres unmarked) = 9.07
• COc1ccc2c(c1)OC(N)=C(C#N)C2c1cc(Cl)c(OC)c(OC)c1 (centres unmarked) = 2.81
• COc1ccc2c(c1)OC(N)=C(C#N)C2c1cc(I)c(OC)c(OC)c1 (centres unmarked) = 1.56
• COc1ccc2c(c1)OC(N)=C(C#N)C2c1cc(Br)c(OC)c(OC)c1 (centres unmarked) = 1.28

Next:
Task: Given COc1ccc2c(c1)OC(N)=C(C#N)C2c1cc(I)c(OC)c(I)c1 (centres unmarked) , state its recorded IC50.
Output: 2.31

---

system: KB-V1^Vbl cervix carcinoma cells; experiment: MTT antiproliferative assay, KB-V1Vbl (with or without verapamil); type: cell-based, human; conditions: Homo sapiens, KB-V1/Vbl; MTT, 72 h, without verapamil; read-out: IC50 KB-V1^Vbl
observation.type: pIC50
pIC50 is defined as minus the log10 of a concentration measured in mol/L.

Known pIC50 results, listed for orientation:
* COc1ccc2c(c1)OC(N)=C(C#N)C2c1cc(I)c(OC)c(I)c1 (stereo not shown) [2F] | 7.15
* COc1ccc2c(c1)OC(N)=C(C#N)C2c1ccccc1F (stereo not shown) [2G] | 6.15
* COc1ccc2c(c1)OC(N)=C(C#N)C2c1ccc(F)c(F)c1 (stereo not shown) [2I] | 6.15
* COc1ccc2c(c1)OC(N)=C(C#N)C2c1cc(Br)c(OC)c(OC)c1 (stereo not shown) [2B] | 8.00
* COc1ccc2c(c1)OC(N)=C(C#N)C2c1cc(Cl)c(OC)c(Cl)c1 (stereo not shown) [2D] | 5.68

Task: State the recorded pIC50 for this entry: COc1ccc2c(c1)OC(N)=C(C#N)C2c1cc(F)cc(F)c1 (stereo not shown) [2O]
Output: 7.70

Task: And then COc1ccc2c(c1)OC(N)=C(C#N)C2c1cccc(F)c1F (stereo not shown) [2M] , what is it?
Output: 6.05

---

The following compounds are listed with their measured pIC50 values.
test system: HeLa cervix carcinoma cells; assay: MTT antiproliferative assay, HeLa; assay type: cell-based; settings: Homo sapiens, 72 h
pIC50 is a log-scale quantity: -log10 of the concentration expressed in molar.

Worked cases, pIC50 given:
- COc1ccc2c(c1)OC(N)=C(C#N)C2c1ccccc1Cl (stereo not shown): 5.85
- COc1ccc2c(c1)OC(N)=C(C#N)C2c1cc(Cl)c(OC)c(OC)c1 (stereo not shown): 8.00
- COc1ccc2c(c1)OC(N)=C(C#N)C2c1ccc(F)c(Cl)c1 (stereo not shown): 7.00
- COc1ccc2c(c1)OC(N)=C(C#N)C2c1cc(F)ccc1F (stereo not shown): 6.70

Task: Find pIC50 (HeLa cervix carcinoma cells) for the entry COc1ccc2c(c1)OC(N)=C(C#N)C2c1cc(Cl)c(OC)c(Cl)c1 (stereo not shown)
Output: 6.15

Task: Continue with COc1ccc2c(c1)OC(N)=C(C#N)C2c1ccc(Cl)c(Cl)c1 (stereo not shown)
Output: 6.10

Task: Also COc1ccc2c(c1)OC(N)=C(C#N)C2c1cc(I)c(OC)c(OC)c1 (stereo not shown) , if possible.
Output: 8.00
